# target_system: PD-1/PD-L1 (Homo sapiens (Human), UniProt Q9NZQ7)
# Sequence (Q9NZQ7 19-238): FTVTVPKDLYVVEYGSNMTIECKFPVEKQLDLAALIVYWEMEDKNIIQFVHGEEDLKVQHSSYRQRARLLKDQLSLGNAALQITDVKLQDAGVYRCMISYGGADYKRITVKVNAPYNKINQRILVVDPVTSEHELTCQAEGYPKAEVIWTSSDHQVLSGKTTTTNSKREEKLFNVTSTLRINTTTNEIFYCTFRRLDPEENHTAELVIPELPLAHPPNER
# assay_summary: PD-1/PD-L1 biochemical protein-protein interaction assay (ALPHA)
# test_context: 0.3 nM His tagged PD-L1, 2.5 nM biotinylated Fc-PD-1, 60 minutes at 25° C., read-out: IC50 PD-L1-PD1
property_label: IC50 (nM)

Reference set, count: 2
molecule	target_system	readout_value
COc1nc(-c2cccc(-c3cccc(-c4cnc(CNC56CC(C#N)(C5)C6)c(OC)n4)c3Cl)c2Cl)cnc1CNC[C@@H]1CCC(=O)N1	PD-1/PD-L1 (Homo sapiens (Human), UniProt Q9NZQ7)	0.43
CNCc1ncc(-c2cccc(-c3cccc(-c4cnc(CNC)c(NC)n4)c3Cl)c2Cl)nc1NC	PD-1/PD-L1 (Homo sapiens (Human), UniProt Q9NZQ7)	1.34

[a] Cc1nc(-c2cccc(-c3cccc(-c4cnc(CNC[C@@H]5CCC(=O)N5)c(C)n4)c3Cl)c2Cl)cnc1CNC[C@@H]1CCC(=O)N1
[b] COc1nc(-c2cccc(-c3cccc(-c4cnc(CNC[C@@H]5C[C@@H](CC(F)(F)F)C(=O)N5)c(OC)n4)c3Cl)c2Cl)cnc1CNC[C@@H]1C[C@@H](CC(F)(F)F)C(=O)N1
[c] COc1nc(-c2cccc(-c3cccc(-c4cnc(CNC(CO)CCF)c(OC)n4)c3Cl)c2Cl)cnc1CNC[C@@H]1CCC(=O)N1 (stereo partly drawn)
[d] COc1nc(-c2cccc(-c3cccc(-c4cnc(CN5CC(C(N)=O)C5)c(OC)n4)c3Cl)c2Cl)cnc1CNC[C@@H]1CCC(=O)N1
QUERY: # rank_down: sort by IC50, max first Response format: the labels, sorted as the prompt asks.
RESULT: b, a, d, c
(b: 5.68 nM, a: 1.5 nM, d: 0.482 nM, c: 0.13 nM)

###

# target_system: PD-1/PD-L1 (Homo sapiens (Human), UniProt Q9NZQ7)
# assay_summary: PD-1/PD-L1 biochemical protein-protein interaction assay (ALPHA)
# test_context: 0.3 nM His tagged PD-L1, 2.5 nM biotinylated Fc-PD-1, 60 minutes at 25° C., read-out: IC50 PD-L1-PD1
property_label: IC50 (nM)

> print(dat)
                              smiles.record  property.label  readout.value
1  COc1nc(-c2cccc(-c3cccc(-c4cnc(CN(C)CC(N)=O)c(OC)n4)c3Cl)c2Cl)cnc1CNC[C@@H]1CCC(=O)N1            IC50          0.301

[1] COc1nc(-c2cccc(-c3cccc(-c4cnc(CNC[C@@H]5CCC(=O)N5)c(OC5CC5)n4)c3Cl)c2Cl)ccc1CNC[C@@H]1CCC(=O)N1
[2] CCc1nc(-c2cccc(-c3cccc(-c4cnc(CN5CC(O)C5)c(CC)n4)c3Cl)c2Cl)cnc1CN1CC(O)C1
QUERY: When 1 and 2 are compared, which has the higher number for IC50? To answer, give the label that identifies your chosen option.
RESULT: 2
(2: 0.335 nM, 1: 0.079 nM)

###

# target_system: PD-1/PD-L1 (Homo sapiens (Human), UniProt Q9NZQ7)
# assay_summary: PD-1/PD-L1 biochemical protein-protein interaction assay (ALPHA)
# test_context: 0.3 nM His tagged PD-L1, 2.5 nM biotinylated Fc-PD-1, 60 minutes at 25° C., read-out: IC50 PD-L1-PD1
pIC50: −log10 of the molar value.
property_label: pIC50

Reference set, count: 3
molecule	pIC50
COc1nc(-c2cccc(-c3cccc(-c4cnc(CNC[C@@H]5CCC(=O)N5)c(OC)n4)c3Cl)c2Cl)cnc1CNCC1CC1CC#N (stereo partly drawn) [compound 220]	9.44
COc1nc(-c2cccc(-c3cccc(-c4cnc(CNC[C@@H]5CCC(=O)N5)c(OC)n4)c3Cl)c2Cl)cnc1CNCCNc1ccc([N+](=O)[O-])cc1 [compound 37]	8.77
COc1nc(-c2cccc(-c3cccc(-c4cnc(CN5CC[C@H](NC(C)=O)C5)c(OC)n4)c3Cl)c2Cl)cnc1CNC[C@H]1CCC(=O)N1 [compound 204]	9.96

[A] COc1nc(-c2cccc(-c3cccc(-c4cnc(CN5CCC6(CCC(=O)N6)C5)c(OC)n4)c3Cl)c2Cl)cnc1CN1CCC2(CCC(=O)N2)C1 (stereo not drawn) [compound 537]
[B] COc1nc(-c2cccc(-c3cccc(-c4cnc(CN[C@H](C5CC5)[C@@H]5CCC(=O)N5)c(OC)n4)c3Cl)c2Cl)cnc1CN[C@H](C1CC1)[C@@H]1CCC(=O)N1 [compound 590]
[C] COc1nc(-c2cccc(-c3cccc(-c4cnc(CNCc5nc(C)n[nH]5)c(OC)n4)c3Cl)c2Cl)cnc1CNCc1nc(C)n[nH]1 [compound 29]
[D] COC[C@H]1C[C@@H](NCc2ncc(-c3cccc(-c4cccc(-c5cnc(CNC[C@@H]6CCC(=O)N6)c(OC)n5)c4Cl)c3Cl)nc2OC)C1 [compound 221]
[E] COc1nc(-c2cccc(-c3cccc(-c4cnc(Cn5c(C)ccc5C)c(OC)n4)c3Cl)c2Cl)cnc1CNC[C@@H]1CCC(=O)N1 [compound 352]
QUERY: Arrange items by their pIC50 values in increasing order. Response format: the labels, sorted as the prompt asks.
RESULT: E, C, D, B, A

[I] COc1nc(-c2cccc(-c3cccc(-c4cnc(CNC[C@H]5C[C@H](O)C5)c(OC)n4)c3Cl)c2Cl)cnc1CNC[C@@H]1CCC(=O)N1 [compound 275]
[II] COc1nc(-c2cccc(-c3cccc(-c4cnc(CN5CCN(C=O)CC5)c(OC)n4)c3Cl)c2Cl)cnc1CNC[C@@H]1CCC(=O)N1 [compound 256]
QUERY: Which value of pIC50 is smaller, the one for I or the one for II ? To answer, give the label that identifies your chosen option.
RESULT: II

[I] COc1nc(-c2cccc(-c3cccc(-c4cnc(CN5CCC6(CC(CO)C6)C5)c(OC)n4)c3Cl)c2Cl)cnc1CNC[C@@H]1CCC(=O)N1 (stereo partly drawn) [compound 298]
[II] COCCC1CN(Cc2ncc(-c3cccc(-c4cccc(-c5cnc(CNC[C@@H]6CCC(=O)N6)c(OC)n5)c4Cl)c3Cl)nc2OC)C1 [compound 225]
QUERY: Which value of pIC50 is smaller, the one for I or the one for II ? To answer, give the label that identifies your chosen option.
RESULT: II
(II: 9.54, I: 9.74)

[1] COc1nc(-c2cccc(-c3cccc(-c4cnc(CN5CCCC(F)(CO)C5)c(OC)n4)c3Cl)c2Cl)cnc1CNC[C@@H]1CCC(=O)N1 (stereo partly drawn) [compound 261]
[2] COc1nc(-c2cccc(-c3cccc(-c4cnc(CN5CC(C)(N)C5)c(OC)n4)c3Cl)c2Cl)cnc1CNC[C@@H]1CCC(=O)N1 [compound 622]
[3] COc1nc(-c2cccc(-c3cccc(-c4cnc(CNC(CCO)C5CC5)c(OC)n4)c3Cl)c2Cl)cnc1CNC[C@@H]1CCC(=O)N1 (stereo partly drawn) [compound 237]
QUERY: # rank_down: sort by pIC50, max first Response format: the labels, sorted as the prompt asks.
RESULT: 3, 1, 2
(3: 10.19, 1: 9.89, 2: 9.59)

Values compiled from patent US10710986B2.
